The threshold is inclusive: boiling point of exactly 200 °C counts as Criterion met; values below receive Criterion not met.

Solved entries:
- smiles: "CCSC"
  cat: "Criterion not met"
- smiles: "CCCCC(=O)OCc1ccco1"
  cat: "Criterion met"
- smiles: "CCOc1ccc(N)c(N)c1"
  cat: "Criterion met"
- smiles: "CC(=O)C[C@H](C)O"
  cat: "Criterion not met"
- smiles: "COC(=O)C(=O)Cl"
  cat: "Criterion not met"

Does boiling point meet or surpass 200 °C for `Cc1nc2ccccc2s1` ?
Criterion met

Does boiling point meet or surpass 200 °C for `C=CCCCCCCC=C` ?
Criterion not met

###

The threshold is inclusive: melting point of exactly 80 °C counts as condition met; values below receive condition not met.

- molecule: "CCC(C)=NNc1ccc([N+](=O)[O-])cc1[N+](=O)[O-]"
  cat: "condition met"
- molecule: "CCC(C)(CC(=O)O)CC(=O)O"
  cat: "condition met"
- molecule: "CCc1ccccc1Nc1ccccc1CC"
  cat: "condition not met"
- molecule: "CCN1C[C@]2(COC)CCC(O)[C@]34C1C(O)([C@@H](OC)[C@H]23)C1(O)C[C@H](OC)[C@H]2C[C@@H]4[C@@H]1[C@H]2OC (some centres not stated)"
  cat: "condition met"
- molecule: "C=C1C(=O)O[C@@H]2C[C@@]3(C)CCC[C@H](C)C3=C[C@H]12"
  cat: "condition not met"
- molecule: "CON(C(=O)c1cc(C)oc1C)C1CCCCC1"
  cat: "condition not met"

Does melting point meet or surpass 80 °C for NC(=O)CCCCC1CCSS1 (configuration not stated) ?
condition met

Does melting point meet or surpass 80 °C for `CCCCCCCCC(N)=O` ?
condition met

Does melting point meet or surpass 80 °C for `Cc1c(N)cccc1Cl` ?
condition not met

Does melting point meet or surpass 80 °C for `C#C[C@]1(O)CC[C@H]2[C@@H]3[C@H](C)CC4=C(CCC(=O)C4)[C@H]3CC[C@@]21C` ?
condition met

Does melting point meet or surpass 80 °C for `Clc1nc(Cl)c(Cl)c(Cl)c1Cl` ?
condition met

Does melting point meet or surpass 80 °C for COP(N)(=O)SC (configuration not stated) ?
condition not met

Does melting point meet or surpass 80 °C for `COC(=O)c1ccccc1[N+](=O)[O-]` ?
condition not met

Does melting point meet or surpass 80 °C for `CC(=O)c1cc(C)c(C)cc1C` ?
condition not met

Does melting point meet or surpass 80 °C for `CC(=O)OCCOCCOC(C)=O` ?
condition not met

Does melting point meet or surpass 80 °C for CC(CCC(=O)O)c1ccccc1 (configuration not stated) ?
condition not met

###

Collected melting point values appear next to each entry.
Respond with the bare value in °C.

Reference set, count: 10
- compound: "c1ccc2c(c1)ccc1ncccc12"
  recorded-result: 94
- compound: "CCNC(N)=S"
  recorded-result: 112
- compound: "Clc1ccc(-c2cc(Cl)c(Cl)c(Cl)c2Cl)cc1"
  recorded-result: 98
- compound: "O=C(O)c1ccccc1Nc1cccc(C(F)(F)F)c1"
  recorded-result: 134
- compound: "O=c1cc[nH]c(=O)[nH]1"
  recorded-result: 338
- compound: "Cc1cc(Cl)ccc1OC(C)C(=O)O (centres undefined)"
  recorded-result: 94.5
- compound: "C[C@@H]1O[C@@H](O[C@@H]2C=C3CC[C@@H]4[C@H](CC[C@]5(C)[C@@H](c6ccc(=O)oc6)CC[C@]45O)[C@@]3(C)CC2)[C@H](O)[C@H](O)[C@H]1O"
  recorded-result: 221
- compound: "CC(C)(C)S"
  recorded-result: -0.5
- compound: "CCC(C)(CC)C(C)(C)C"
  recorded-result: -42.5
- compound: "Cc1ccc(C(=O)O)cc1C"
  recorded-result: 165

What value of measured melting point is listed for `COc1ccccc1OC(C)=O` ?
31.5

What value of measured melting point is listed for `COC(=O)c1sccc1N` ?
65

What value of measured melting point is listed for `CCCF` ?
-159

What value of measured melting point is listed for `CNc1cccc2ccccc12` ?
174

###

Collected boiling point values appear next to each entry.
Respond with the bare value in °C.

Reference set, count: 2
- compound: "COC(=O)C(Br)CBr (configuration not stated)"
  recorded-result: 206
- compound: "CCP(c1ccccc1)c1ccccc1"
  recorded-result: 293

What value of measured boiling point is listed for `FC(F)(F)C(Cl)(Cl)Cl` ?
46.1

What value of measured boiling point is listed for CC(C)=C1CCC(C)CC1 (configuration not stated) ?
173

What value of measured boiling point is listed for `Cc1cnc(C)c(C)c1` ?
184

What value of measured boiling point is listed for `CC(=O)OCCCCl` ?
164

What value of measured boiling point is listed for `CCN(C=O)CC` ?
178

What value of measured boiling point is listed for CC(CO)N(C)C (configuration not stated) ?
150

###

Collected melting point values appear next to each entry.
Respond with the bare value in °C.

What value of measured melting point is listed for `CCC(Br)=CBr` ?
-49.5

###

Rule: boiling point below 200 °C gives label 1, anything at or above gives label 0.

- molecule: "CCOC(=O)CI"
  cat: "label 1"

Criterion: boiling point strictly below 200 °C. Is it met by `C=CC[C@@H](C)CC` ?
label 1

Criterion: boiling point strictly below 200 °C. Is it met by `Cc1ccc2oc(=O)ccc2c1` ?
label 0

Criterion: boiling point strictly below 200 °C. Is it met by `CS(C)(=O)=O` ?
label 0

Criterion: boiling point strictly below 200 °C. Is it met by `Oc1ccc(Cl)cc1` ?
label 0

###

attribute-measured: log10 vapour pressure (mmHg)

Reference set, count: 5
- compound: "FC(F)=C(F)Br"
  recorded-result: 3.29
- compound: "c1ccc2c(c1)sc1ccccc12"
  recorded-result: -3.69
- compound: "O=C[C@@H]1C[C@@H]2[C@@H]3[C@H]1[C@@]1(Cl)C(Cl)(Cl)[C@]3(Cl)[C@@]3(Cl)[C@@H]2[C@]31Cl"
  recorded-result: -6.7
- compound: "CCOC(=O)C(C)C"
  recorded-result: 1.4
- compound: "CCOC(=O)CSc1nc(C(C)(C)C)nn1C(=O)N(C)C"
  recorded-result: -6.92

What value of measured log10 vapour pressure (mmHg) is listed for CCCCC(CC)COC(=O)Cl (centres undefined) ?
-0.775

What value of measured log10 vapour pressure (mmHg) is listed for `C=C(Cl)Cl` ?
2.78

What value of measured log10 vapour pressure (mmHg) is listed for `O=C(NC(=O)c1c(F)cccc1F)Nc1cc(Cl)c(F)c(Cl)c1F` ?
-11.2

What value of measured log10 vapour pressure (mmHg) is listed for `COC(C)OC` ?
2.23

What value of measured log10 vapour pressure (mmHg) is listed for `CCCCN(CC)c1c([N+](=O)[O-])cc(C(F)(F)F)cc1[N+](=O)[O-]` ?
-4.19

What value of measured log10 vapour pressure (mmHg) is listed for `O=C1CCCCCC1` ?
0.0969

What value of measured log10 vapour pressure (mmHg) is listed for `CI` ?
2.61

What value of measured log10 vapour pressure (mmHg) is listed for `Clc1ccc(C(c2ccc(Cl)cc2)C(Cl)(Cl)Cl)cc1` ?
-6.8

What value of measured log10 vapour pressure (mmHg) is listed for CC(Oc1ccc2ccccc2c1)C(O)=Nc1ccccc1 (centres undefined) ?
-10.7

###

Collected melting point values appear next to each entry.
Write the figure, then the unit, nothing else.

- compound: "Cc1cc(O)c(C)c(O)c1"
  recorded-result: "163 °C"
- compound: "COC1=C[C@@H](C)[C@@H]2C[C@H]3OC(=O)C[C@H]4C(C)=C(OC)C(=O)[C@H]([C@@]2(C)C1=O)[C@@]34C"
  recorded-result: "222 °C"
- compound: "O=[N+]([O-])c1ccc(F)cc1O"
  recorded-result: "36 °C"

Now look at this entry.
What value of measured melting point is listed for `Cc1c(F)c(F)c(C(=O)O)c(F)c1F` ?
174 °C

###

Rule: log10 vapour pressure (mmHg) below 1 gives criterion met, anything at or above gives criterion not met.

Criterion: log10 vapour pressure (mmHg) strictly below 1. Is it met by `CO/N=C(/C(=O)OC)c1ccccc1COc1ccccc1C` ?
criterion met

###

attribute-measured: melting point (°C)
Respond with the bare value in °C.

Reference set, count: 3
- smiles: "CCC1(c2ccccc2)C(=O)NCNC1=O"
  unit-symbol: "°C"
  melting point: 282
- smiles: "CC(C)c1ccc(CO)cc1"
  unit-symbol: "°C"
  melting point: 28
- smiles: "CCOCCCO"
  unit-symbol: "°C"
  melting point: 160

What value of measured melting point is listed for `OC(CCN1CCCCC1)(c1ccccc1)c1ccccc1` ?
120

What value of measured melting point is listed for `O=C1c2cccc(O)c2C(=O)c2c(O)cc(CO)cc21` ?
224

What value of measured melting point is listed for `CCN(CC)c1ccccc1` ?
-38.8

What value of measured melting point is listed for `CC(=O)C=Cc1ccccc1` ?
41.8

What value of measured melting point is listed for `CC1=Cc2ccccc2C1` ?
80

Source of measurements: the OPERA property sets (Mansouri et al. 2018)
